Each entry below carries its measured IC50, system: DDR1 (Homo sapiens (Human), UniProt Q08345).
Sequence (Q08345 19-913): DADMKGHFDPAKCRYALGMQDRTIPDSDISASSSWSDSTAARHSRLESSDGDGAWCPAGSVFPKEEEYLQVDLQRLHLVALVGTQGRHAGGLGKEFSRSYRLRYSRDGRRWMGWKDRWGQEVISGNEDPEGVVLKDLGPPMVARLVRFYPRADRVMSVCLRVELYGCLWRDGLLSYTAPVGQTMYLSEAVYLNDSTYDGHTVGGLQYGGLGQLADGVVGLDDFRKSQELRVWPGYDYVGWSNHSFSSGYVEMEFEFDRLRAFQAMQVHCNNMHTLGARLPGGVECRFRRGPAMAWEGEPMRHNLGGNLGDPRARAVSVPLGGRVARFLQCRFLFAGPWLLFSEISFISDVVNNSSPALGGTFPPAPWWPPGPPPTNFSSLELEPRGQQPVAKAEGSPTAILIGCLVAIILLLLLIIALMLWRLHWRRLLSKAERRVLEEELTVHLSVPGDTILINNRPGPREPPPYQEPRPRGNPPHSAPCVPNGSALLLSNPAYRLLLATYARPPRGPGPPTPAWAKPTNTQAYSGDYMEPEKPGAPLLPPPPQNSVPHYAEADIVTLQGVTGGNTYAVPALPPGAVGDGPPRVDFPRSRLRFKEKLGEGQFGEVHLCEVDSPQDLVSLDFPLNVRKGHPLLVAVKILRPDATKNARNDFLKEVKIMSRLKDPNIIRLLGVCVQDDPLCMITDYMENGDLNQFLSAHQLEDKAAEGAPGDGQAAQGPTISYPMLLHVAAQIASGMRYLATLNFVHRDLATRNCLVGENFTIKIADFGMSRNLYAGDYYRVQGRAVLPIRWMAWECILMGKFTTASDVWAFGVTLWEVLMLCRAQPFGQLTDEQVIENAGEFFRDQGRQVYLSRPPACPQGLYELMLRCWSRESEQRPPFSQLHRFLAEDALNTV
propertyLabel: IC50 (nM)

{"compound": "CC1CN(c2cncnc2)Cc2cc(C(=O)Nc3cc(CN4CCOCC4)cc(C(F)(F)F)c3)ccc21 (centres unmarked)", "IC50 [nM]": 193}
{"compound": "CC1CN(c2cncnc2)Cc2cc(C(=O)Nc3cc(CN4CCN(C5CCCCC5)CC4)cc(C(F)(F)F)c3)ccc21 (centres unmarked)", "IC50 [nM]": 79.9}
{"compound": "CC1CN(c2cncnc2)Cc2cc(C(=O)Nc3cc(CN4CCCN(C)CC4)cc(C(F)(F)F)c3)ccc21 (centres unmarked)", "IC50 [nM]": 25.6}
{"compound": "CN1CCN(Cc2cc(NC(=O)c3ccc4c(c3)CN(c3cncnc3)CC4(C)C)cc(C(F)(F)F)c2)CC1", "IC50 [nM]": 223}
{"compound": "CC1CN(c2cncnc2)Cc2cc(C(=O)Nc3cc(CN(C)C)cc(C(F)(F)F)c3)ccc21 (centres unmarked)", "IC50 [nM]": 254}
{"compound": "CC1CN(c2cncnc2)Cc2cc(C(=O)Nc3cc(N4CCN(C)CC4)cc(C(F)(F)F)c3)ccc21 (centres unmarked)", "IC50 [nM]": 132}

[I] CC1CN(c2cncnc2)Cc2cc(C(=O)Nc3cc(CN4CCCCC4)cc(C(F)(F)F)c3)ccc21 (centres unmarked)
[II] CC1CN(c2cncnc2)Cc2cc(C(=O)Nc3cc(CN4CCN(C)CC4)cc(C4CC4)c3)ccc21 (centres unmarked)
Query string: Of the pair I and II , name the member with the lesser recorded IC50. Please identify the chosen entry by its label.
Result string: II

----------
# targetEntity: c-Kit (Homo sapiens (Human))
# Sequence (P10721 26-976): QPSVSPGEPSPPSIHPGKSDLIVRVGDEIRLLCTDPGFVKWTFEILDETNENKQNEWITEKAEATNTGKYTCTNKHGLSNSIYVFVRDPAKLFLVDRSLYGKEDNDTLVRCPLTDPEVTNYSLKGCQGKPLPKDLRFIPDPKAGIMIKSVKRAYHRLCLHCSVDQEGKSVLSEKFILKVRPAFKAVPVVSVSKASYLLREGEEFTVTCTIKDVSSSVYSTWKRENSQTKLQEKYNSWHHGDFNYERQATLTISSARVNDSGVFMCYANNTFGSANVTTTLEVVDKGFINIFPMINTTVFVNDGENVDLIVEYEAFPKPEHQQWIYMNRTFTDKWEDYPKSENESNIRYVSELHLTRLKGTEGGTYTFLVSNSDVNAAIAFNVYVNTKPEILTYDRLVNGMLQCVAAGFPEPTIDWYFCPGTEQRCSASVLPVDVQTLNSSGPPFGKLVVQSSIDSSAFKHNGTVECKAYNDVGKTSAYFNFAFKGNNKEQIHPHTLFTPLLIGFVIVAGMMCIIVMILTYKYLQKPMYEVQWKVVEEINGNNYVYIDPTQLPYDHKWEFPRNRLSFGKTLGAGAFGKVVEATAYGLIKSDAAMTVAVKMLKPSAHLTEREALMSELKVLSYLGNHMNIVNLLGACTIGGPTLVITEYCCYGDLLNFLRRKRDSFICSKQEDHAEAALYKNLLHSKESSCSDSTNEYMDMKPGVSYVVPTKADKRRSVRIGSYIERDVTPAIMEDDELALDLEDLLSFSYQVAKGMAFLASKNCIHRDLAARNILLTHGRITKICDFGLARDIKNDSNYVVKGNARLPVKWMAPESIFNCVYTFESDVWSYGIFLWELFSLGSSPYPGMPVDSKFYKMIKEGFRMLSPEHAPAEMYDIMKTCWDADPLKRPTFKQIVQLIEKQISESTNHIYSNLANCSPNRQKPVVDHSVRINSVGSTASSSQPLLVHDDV
propertyLabel: IC50

Here is how some molecules turned out for IC50.
{"molecule": "Cc1cn(-c2cc(NC(=O)c3ccc4c(c3)CN(c3cncnc3)CC4C)cc(C(F)(F)F)c2)cn1 (centres unmarked)", "observed": "> 10 µM"}
{"molecule": "CC1Cc2ccc(C(=O)Nc3cc(CN4CCN(C)CC4)cc(C(F)(F)F)c3)cc2CN1c1cncnc1 (centres unmarked)", "observed": "> 10 µM"}
{"molecule": "CC1CN(c2cncnc2)Cc2cc(C(=O)Nc3cc(CN4CC[C@@H](N(C)C)C4)cc(C(F)(F)F)c3)ccc21 (some centres unmarked)", "observed": "> 10 µM"}

Summary line: CC1CN(c2cncnc2)Cc2cc(C(=O)Nc3cc(CN4CCN(C)CC4)c(F)c(C(F)(F)F)c3)ccc21 (centres unmarked) , c-Kit (Homo sapiens (Human)), reported IC50 = > 10 µM

The molecule CC1CN(c2cncnc2)Cc2cc(C(=O)Nc3cc(CN4CCN(C)CC4)cc(-c4ccccc4)c3)ccc21 (centres unmarked) , tested on c-Kit (Homo sapiens (Human)), showed IC50 of > 10 µM

Bench note, c-Kit (Homo sapiens (Human)): CC1CN(c2cncnc2)Cc2cc(C(=O)Nc3cc(CN4CC[C@H](N(C)C)C4)cc(C(F)(F)F)c3)ccc21 (some centres unmarked) , IC50 reads > 10 µM

Hey, c-Kit (Homo sapiens (Human)) data for CCN1CCN(Cc2cc(NC(=O)c3ccc4c(c3)CN(c3cncnc3)CC4C)cc(C(F)(F)F)c2)CC1 (centres unmarked) : IC50 came out at > 10 µM

Short answer on c-Kit (Homo sapiens (Human)) for CC1CN(c2cncnc2)Cc2cc(C(=O)Nc3cc(CN4CCN(C)CC4)cc(C(F)(F)F)c3)ccc21 (centres unmarked) , IC50: > 10 µM
